The source made the active and inactive calls.
ATP-dependent RNA helicase DDX3X (Homo sapiens, UniProt O00571): recorded Kd for assorted compounds; note: in the data inactive means no Kd found up to 30 µM
Sequence (O00571 whole entry): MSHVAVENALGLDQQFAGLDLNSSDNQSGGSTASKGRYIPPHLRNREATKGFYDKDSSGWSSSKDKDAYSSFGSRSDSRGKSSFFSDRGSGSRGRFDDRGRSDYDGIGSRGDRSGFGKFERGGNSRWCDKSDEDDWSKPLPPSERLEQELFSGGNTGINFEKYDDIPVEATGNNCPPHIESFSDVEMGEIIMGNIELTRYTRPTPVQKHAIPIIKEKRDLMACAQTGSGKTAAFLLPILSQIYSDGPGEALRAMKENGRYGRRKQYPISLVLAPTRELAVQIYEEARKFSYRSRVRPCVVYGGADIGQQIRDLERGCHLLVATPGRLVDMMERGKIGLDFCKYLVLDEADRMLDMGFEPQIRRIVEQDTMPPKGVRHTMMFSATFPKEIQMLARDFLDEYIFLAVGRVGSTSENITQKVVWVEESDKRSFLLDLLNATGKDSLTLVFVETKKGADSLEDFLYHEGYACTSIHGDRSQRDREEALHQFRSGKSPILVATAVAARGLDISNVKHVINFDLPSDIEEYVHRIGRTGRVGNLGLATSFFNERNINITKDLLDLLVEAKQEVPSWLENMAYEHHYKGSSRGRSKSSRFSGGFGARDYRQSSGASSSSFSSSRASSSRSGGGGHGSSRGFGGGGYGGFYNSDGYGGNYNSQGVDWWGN

Your task in this section: give Kd for each listed record.
1. COc1ccc(S(=O)(=O)N(C(C)=O)c2ccccc2/C=C/c2cc[n+]([O-])cc2)cc1 [HMN-214]
2. C=CC(=O)N1CCC[C@H](n2c(=O)n(-c3ccc(Oc4ccccc4)cc3)c3c(N)ncnc32)C1
3. CNC(=O)c1cccc2cc(Oc3ccnc4cc(OCC5(N)CC5)c(OC)cc34)ccc12 [LUCITANIB]
4. C[C@H]1CNCCCN1S(=O)(=O)c1cccc2cncc(F)c12
5. CCOc1cc2ncc(C#N)c(Nc3ccc(F)c(Cl)c3)c2cc1NC(=O)/C=C/CN(C)C [PELITINIB]
6. Cn1ncc(Cl)c1-c1cc(C(=O)N[C@H](CN)Cc2ccc(F)c(F)c2)oc1Cl [UPROSERTIB]
7. C[C@@H](NC(=O)c1ncnc(N)c1Cl)c1ncc(C(=O)Nc2cc(C(F)(F)F)c(Cl)cn2)s1 [TOVORAFENIB]
8. CC(C)c1cc(CNc2nc(Nc3cc(C4CC4)[nH]n3)cc(N3CCN(C)CC3)n2)on1 [XL-228]

["> 30 µM (inactive)", "> 30 µM (inactive)", "> 30 µM (inactive)", "> 30 µM (inactive)", "> 30 µM (inactive)", "> 30 µM (inactive)", "> 30 µM (inactive)", "> 30 µM (inactive)"]

Your task in this section: give Kd for each listed record.
1. CNC(=O)c1ccccc1Sc1ccc2c(/C=C/c3ccccn3)n[nH]c2c1 [AXITINIB]
2. O=c1[nH]ccc2cc(OC3CCNCC3)ccc12 [SAR-407899 FREE BASE]
3. COc1cc2c(Nc3ccc(Cl)c(Cl)c3F)ncnc2cc1OC[C@@H]1C[C@@H]2CN(C)C[C@@H]2C1 [TESEVATINIB]
4. Cc1nc(Nc2n[nH]c3c2CN(C(=O)N[C@H](CN(C)C)c2ccccc2)C3(C)C)c2sccc2n1 [PF-03758309]

> 30 µM (inactive)
> 30 µM (inactive)
> 30 µM (inactive)
> 30 µM (inactive)

Your task in this section: give Kd for each listed record.
1. FC(F)(F)c1ccc(/C=C/c2nc(COc3ccc(CCCCn4ccnn4)cc3)co2)cc1 [MUBRITINIB]
2. Cc1cnc(NC(=O)Nc2cc(Br)c(C)cc2OC[C@@H]2CNCCO2)cn1 [RABUSERTIB]
3. CC(=O)NCC(=O)N1[C@@H]2CC[C@H]1c1ccc(Nc3ncc(C(F)(F)F)c(NC4CCC4)n3)cc12 [PF-03814735]
4. COc1cc2ncnc(Oc3cccc(NC(=O)Nc4cc(C(C)(C)C(F)(F)F)on4)c3)c2cc1OC [CEP-32496]
5. CN(C[C@@H]1COCCO1)S(=O)(=O)Nc1ccc2ccc3ncc(-c4cnn(C)c4)cc3c(=O)c2c1 [MK-2461]
6. CNC(=O)c1cc(Oc2ccc(NC(=O)Nc3cc(C(C)(C)C)nn3-c3ccc4ncccc4c3)c(F)c2)ccn1 [REBASTINIB]

1: > 30 µM (inactive); 2: > 30 µM (inactive); 3: > 30 µM (inactive); 4: > 30 µM (inactive); 5: > 30 µM (inactive); 6: > 30 µM (inactive)

Your task in this section: give Kd for each listed record.
1. CCn1cc(-c2ccnc3[nH]c(-c4cccc(CN(C)C)c4)cc23)c(-c2ccc(NC(=O)N(C)C)cc2)n1 [GSK-1070916]
2. CCS(=O)(=O)c1cccc(-c2cc(C(=O)NC3CCN(C)CC3)c(C)c3[nH]c4ncc(C)cc4c23)c1 [TAK-901]
3. CN1C/C=C/CCOc2cccc(c2)-c2ccnc(n2)Nc2cccc(c2)C1 [ZOTIRACICLIB]
4. C#Cc1cccc(Nc2ncnc3cc(OC)c(OCCCCCCC(=O)NO)cc23)c1 [CUDC-101]
5. Cc1nc2cc(-c3nn(C(C)C)c4ncnc(N)c34)ccc2o1
6. CO[C@H]1C[C@@H]2CC[C@@H](C)[C@@](O)(O2)C(=O)C(=O)N2CCCC[C@H]2C(=O)O[C@H]([C@H](C)C[C@@H]2CC[C@@H](OP(C)(C)=O)[C@H](OC)C2)CC(=O)[C@H](C)/C=C(\C)[C@@H](O)[C@@H](OC)C(=O)[C@H](C)C[C@H](C)/C=C/C=C/C=C/1C [RIDAFOROLIMUS]
7. Cc1cc(Nc2ncnc3ccc(NC4=NC(C)(C)CO4)cc23)ccc1Oc1ccn2ncnc2c1 [TUCATINIB]

1. > 30 µM (inactive)
2. > 30 µM (inactive)
3. > 30 µM (inactive)
4. > 30 µM (inactive)
5. > 30 µM (inactive)
6. > 30 µM (inactive)
7. > 30 µM (inactive)

Your task in this section: give Kd for each listed record.
1. Cc1nc(NC(=O)N2CCC[C@H]2C(N)=O)sc1-c1ccnc(C(C)(C)C(F)(F)F)c1 [ALPELISIB]
2. O=C(Cc1ccc(-c2ccc(OCCN3CCOCC3)cc2)cn1)NCc1ccccc1 [TIRBANIBULIN]

["> 30 µM (inactive)", "> 30 µM (inactive)"]

Your task in this section: give Kd for each listed record.
1. O=C(Nc1c[nH]nc1-c1nc2cc(CN3CCOCC3)ccc2[nH]1)NC1CC1 [AT-9283]
2. Cc1cc(C(=O)NOCCO)c(Nc2ccc(I)cc2F)n(C)c1=O [AZD-8330]
3. C=CC(=O)Nc1cc2c(Nc3ccc(F)c(Cl)c3)ncnc2cc1C#CC(C)(C)N1CCN(C)CC1 [AV-412 FREE BASE]
4. N#CC[C@H](C1CCCC1)n1cc(-c2ncnc3[nH]ccc23)cn1 [RUXOLITINIB]

["> 30 µM (inactive)", "> 30 µM (inactive)", "> 30 µM (inactive)", "> 30 µM (inactive)"]

====

Calls of active or inactive are those of the source.
5'-AMP-activated protein kinase catalytic subunit alpha-1 (Homo sapiens, UniProt Q13131): recorded Kd for assorted molecules; note: in the data inactive means no Kd found up to 30 µM
Sequence (Q13131 whole entry): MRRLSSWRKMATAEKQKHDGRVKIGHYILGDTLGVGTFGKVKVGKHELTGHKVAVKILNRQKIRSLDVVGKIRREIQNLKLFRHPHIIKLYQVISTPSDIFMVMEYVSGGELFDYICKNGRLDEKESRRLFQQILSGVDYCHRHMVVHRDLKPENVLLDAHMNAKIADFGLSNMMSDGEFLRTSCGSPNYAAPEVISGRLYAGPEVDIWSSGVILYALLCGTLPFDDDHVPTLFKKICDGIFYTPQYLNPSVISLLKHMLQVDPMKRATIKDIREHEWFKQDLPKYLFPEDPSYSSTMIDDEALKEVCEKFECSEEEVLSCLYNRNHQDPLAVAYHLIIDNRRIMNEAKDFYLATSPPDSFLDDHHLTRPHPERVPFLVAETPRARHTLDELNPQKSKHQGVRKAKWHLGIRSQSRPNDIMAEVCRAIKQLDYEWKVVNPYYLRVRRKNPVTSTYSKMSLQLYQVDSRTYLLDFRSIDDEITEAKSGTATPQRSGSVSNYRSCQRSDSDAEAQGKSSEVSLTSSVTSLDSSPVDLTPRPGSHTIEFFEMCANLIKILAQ

Field: example entries. Status: answers known.
Smiles Text | Kd
CO[C@H]1C[C@@H]2CC[C@@H](C)[C@@](O)(O2)C(=O)C(=O)N2CCCC[C@H]2C(=O)O[C@H]([C@H](C)C[C@@H]2CC[C@@H](OP(C)(C)=O)[C@H](OC)C2)CC(=O)[C@H](C)/C=C(\C)[C@@H](O)[C@@H](OC)C(=O)[C@H](C)C[C@H](C)/C=C/C=C/C=C/1C | > 30 µM (inactive)
Cc1cc(Nc2ncc(Cl)c(Nc3ccccc3S(=O)(=O)C(C)C)n2)c(OC(C)C)cc1C1CCNCC1 | > 30 µM (inactive)

Return Kd for the following molecule: `COCc1c(-c2ccc(NC(=O)Nc3cc(C(F)(F)F)ccc3F)c(F)c2)c2c(N)ncnn2c1CN1CCOCC1`
> 30 µM (inactive)

====

Test Target: Cyclin-dependent kinase 7 (Homo sapiens); note: in the data inactive means no Kd found up to 30 µM
Sequence (P50613 whole entry): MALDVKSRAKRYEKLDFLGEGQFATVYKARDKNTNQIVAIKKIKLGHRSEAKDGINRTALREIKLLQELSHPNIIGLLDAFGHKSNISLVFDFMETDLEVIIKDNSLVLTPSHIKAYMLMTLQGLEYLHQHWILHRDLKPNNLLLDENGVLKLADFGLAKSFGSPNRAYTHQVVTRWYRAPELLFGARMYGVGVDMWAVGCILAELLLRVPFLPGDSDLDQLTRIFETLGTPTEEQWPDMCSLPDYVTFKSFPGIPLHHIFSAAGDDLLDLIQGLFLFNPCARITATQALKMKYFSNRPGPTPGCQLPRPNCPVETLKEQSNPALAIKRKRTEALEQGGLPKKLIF
Calls of active or inactive are those of the source.
Just give me one of these, please: TRUE for active, FALSE for inactive

Worked examples follow.
Smiles Text | Classification
NC(=O)Nc1cc(-c2cccc(F)c2)sc1C(=O)N[C@H]1CCCNC1 | FALSE
C[C@@H](N)c1ccc(C(=O)Nc2ccnc3[nH]ccc23)cc1 | FALSE

Write down the call the test reported for this compound. Item: `COCc1c(-c2ccc(NC(=O)Nc3cc(C(F)(F)F)ccc3F)c(F)c2)c2c(N)ncnn2c1CN1CCOCC1`
FALSE

Write down the call the test reported for this compound. Item: `CCS(=O)(=O)c1cccc(-c2cc(C(=O)NC3CCN(C)CC3)c(C)c3[nH]c4ncc(C)cc4c23)c1`
TRUE

Write down the call the test reported for this compound. Item: `C[C@H]1CNCCCN1S(=O)(=O)c1cccc2cncc(F)c12`
FALSE

Write down the call the test reported for this compound. Item: `Nc1ncnc2c1c(-c1cccc(OCc3ccccc3)c1)cn2[C@H]1C[C@@H](CN2CCC2)C1`
FALSE

====

Test Target: Mitogen-activated protein kinase kinase kinase 20 (Homo sapiens, UniProt Q9NYL2); note: in the data inactive means no Kd found up to 30 µM
Sequence (Q9NYL2 whole entry): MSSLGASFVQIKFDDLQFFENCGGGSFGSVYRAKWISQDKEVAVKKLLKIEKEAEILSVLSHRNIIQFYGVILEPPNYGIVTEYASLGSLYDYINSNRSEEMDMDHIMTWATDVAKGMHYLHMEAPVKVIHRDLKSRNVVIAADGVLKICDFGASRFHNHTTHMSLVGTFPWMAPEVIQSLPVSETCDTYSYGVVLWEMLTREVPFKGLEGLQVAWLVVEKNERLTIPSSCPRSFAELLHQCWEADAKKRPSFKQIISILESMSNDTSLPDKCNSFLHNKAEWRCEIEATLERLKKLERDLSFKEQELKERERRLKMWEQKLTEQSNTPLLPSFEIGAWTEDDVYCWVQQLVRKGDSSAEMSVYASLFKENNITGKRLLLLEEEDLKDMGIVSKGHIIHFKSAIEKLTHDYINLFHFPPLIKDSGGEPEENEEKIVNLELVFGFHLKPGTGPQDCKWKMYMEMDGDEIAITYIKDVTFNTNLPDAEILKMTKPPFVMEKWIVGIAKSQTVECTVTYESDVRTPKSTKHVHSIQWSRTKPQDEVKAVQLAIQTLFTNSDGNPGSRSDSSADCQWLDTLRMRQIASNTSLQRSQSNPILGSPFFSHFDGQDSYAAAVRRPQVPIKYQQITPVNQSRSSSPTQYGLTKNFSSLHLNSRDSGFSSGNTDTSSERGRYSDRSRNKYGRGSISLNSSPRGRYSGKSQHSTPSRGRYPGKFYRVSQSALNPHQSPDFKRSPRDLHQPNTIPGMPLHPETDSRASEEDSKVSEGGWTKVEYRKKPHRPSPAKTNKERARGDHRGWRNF
Activity calls are given as the source filed them.
Just give me one of these, please: active, inactive

Worked examples follow.
Molecule | Classification
CN1CCN(CCOc2cc(OC3CCOCC3)c3c(Nc4c(Cl)ccc5c4OCO5)ncnc3c2)CC1 [SARACATINIB] | active
CN(C[C@@H]1COCCO1)S(=O)(=O)Nc1ccc2ccc3ncc(-c4cnn(C)c4)cc3c(=O)c2c1 [MK-2461] | inactive
O=C(Nc1cc(C(F)(F)F)cc(C(F)(F)F)c1)c1cc(Cl)ccc1O [IMD-0354] | inactive

Write down the call the test reported for this molecule. Item: O=C1NC(=O)[C@@H](c2cn3c4c(cccc24)CCC3)[C@@H]1c1c[nH]c2ccccc12 [TIVANTINIB]
inactive

Write down the call the test reported for this molecule. Item: COc1ncc(-c2ccc3nccc(-c4ccnnc4)c3c2)cc1NS(=O)(=O)c1ccc(F)cc1F [OMIPALISIB]
inactive

Write down the call the test reported for this molecule. Item: COc1cc2c(Nc3ccc(Cl)c(Cl)c3F)ncnc2cc1OC[C@@H]1C[C@@H]2CN(C)C[C@@H]2C1 [TESEVATINIB]
inactive

Write down the call the test reported for this molecule. Item: N#CC1(c2ccc(NC(=O)c3cccnc3NCc3ccncc3)cc2)CCCC1 [RIVOCERANIB]
active

Write down the call the test reported for this molecule. Item: CCOc1cc2ncc(C#N)c(Nc3ccc(F)c(Cl)c3)c2cc1NC(=O)/C=C/CN(C)C [PELITINIB]
active
